Assay: Octanol-water partition coefficient, log P of the compound
Format: physicochemical
Classify by measured logP: T if it is equal to or exceeds 2, F if it is smaller.

SMILES NOTATION	ASSIGNED LABEL
Cc1c(NCc2nnc(-c3cccs3)o2)c(=O)n(-c2ccccc2)n1C	F
Cc1c(NCc2nnc(-c3ccccc3Cl)o2)c(=O)n(-c2ccccc2)n1C	T
Cc1c(NCc2nnc(-c3ccncc3)o2)c(=O)n(-c2ccccc2)n1C	F

// query For this compound, is measured logP 2 or higher? Cc1c(NCc2nnc(COc3ccccc3)o2)c(=O)n(-c2ccccc2)n1C
// result F

// query For this compound, is measured logP 2 or higher? Cc1c(NCc2nnc(-c3ccc(N)cc3)o2)c(=O)n(-c2ccccc2)n1C
// result F

// query For this compound, is measured logP 2 or higher? Cc1c(NCc2nnc(Cc3ccccc3)o2)c(=O)n(-c2ccccc2)n1C
// result F

// query For this compound, is measured logP 2 or higher? Cc1c(NCc2nnc(-c3ccccc3O)o2)c(=O)n(-c2ccccc2)n1C
// result F

// query For this compound, is measured logP 2 or higher? COc1ccc(-c2nnc(CNc3c(C)n(C)n(-c4ccccc4)c3=O)o2)cc1
// result T

----------
Tested on: Aspergillus niger
Experiment: Antifungal activity against Aspergillus niger NCIM 1196 by agar diffusion method
Assay type: functional
The following compounds are listed with their measured MIC values.

# example entries with known answers
SMILES NOTATION	MEASUREMENT TARGET	REPORTED
Cc1c(NCc2nnc(-c3ccncc3)o2)c(=O)n(-c2ccccc2)n1C	Aspergillus niger	256 µg/mL
OC(Cn1cncn1)(Cn1cncn1)c1ccc(F)cc1F	Aspergillus niger	2 µg/mL
CC(=O)Oc1ccccc1-c1nnc(CNc2c(C)n(C)n(-c3ccccc3)c2=O)o1	Aspergillus niger	512 µg/mL
Cc1c(NCc2nnc(-c3cccs3)o2)c(=O)n(-c2ccccc2)n1C	Aspergillus niger	128 µg/mL
Cc1ccccc1-c1nnc(CNc2c(C)n(C)n(-c3ccccc3)c2=O)o1	Aspergillus niger	8 µg/mL
Cc1c(NCc2nnc(-c3ccccc3)o2)c(=O)n(-c2ccccc2)n1C	Aspergillus niger	512 µg/mL
Cc1c(NCc2nnc(-c3ccccc3Cl)o2)c(=O)n(-c2ccccc2)n1C	Aspergillus niger	256 µg/mL
Cc1ccc(-c2nnc(CNc3c(C)n(C)n(-c4ccccc4)c3=O)o2)cc1	Aspergillus niger	4 µg/mL

// query Would you kindly share the measured MIC for Cc1c(NCc2nnc(Cc3ccccc3)o2)c(=O)n(-c2ccccc2)n1C ?
// result 512 µg/mL

// query Would you kindly share the measured MIC for Cc1c(NCc2nnc(COc3ccccc3)o2)c(=O)n(-c2ccccc2)n1C ?
// result > 512 µg/mL

----------
Test: Octanol-water partition coefficient, log P of the compound
Format: physicochemical
VALUE TYPE: logP
Lab note: write the figure by itself, no unit.

# example entries with known answers
SMILES NOTATION	logP
CC(=O)Oc1ccccc1-c1nnc(CNc2c(C)n(C)n(-c3ccccc3)c2=O)o1	1.98
Cc1c(NCc2nnc(-c3ccccc3)o2)c(=O)n(-c2ccccc2)n1C	2.02
Cc1ccccc1-c1nnc(CNc2c(C)n(C)n(-c3ccccc3)c2=O)o1	2.38
Cc1c(NCc2nnc(-c3ccc(Cl)cc3)o2)c(=O)n(-c2ccccc2)n1C	2.7
Cc1cccc(-c2nnc(CNc3c(C)n(C)n(-c4ccccc4)c3=O)o2)c1	2.39

# ---- query compound ----
// query Would you kindly share the measured logP for Cc1ccc(-c2nnc(CNc3c(C)n(C)n(-c4ccccc4)c3=O)o2)cc1 ?
// result 2.48
